Below is a list of entries, each paired with its recorded IC50 value.
molecular target: Parathyroid hormone/parathyroid hormone-related peptide receptor (Homo sapiens); assay: Displacement of [125I]DPC-AJ1951 from PTH/PTH-related peptide receptor expressed in HKRK-B28 cells; format: cell-based
Sequence (Q03431 whole entry): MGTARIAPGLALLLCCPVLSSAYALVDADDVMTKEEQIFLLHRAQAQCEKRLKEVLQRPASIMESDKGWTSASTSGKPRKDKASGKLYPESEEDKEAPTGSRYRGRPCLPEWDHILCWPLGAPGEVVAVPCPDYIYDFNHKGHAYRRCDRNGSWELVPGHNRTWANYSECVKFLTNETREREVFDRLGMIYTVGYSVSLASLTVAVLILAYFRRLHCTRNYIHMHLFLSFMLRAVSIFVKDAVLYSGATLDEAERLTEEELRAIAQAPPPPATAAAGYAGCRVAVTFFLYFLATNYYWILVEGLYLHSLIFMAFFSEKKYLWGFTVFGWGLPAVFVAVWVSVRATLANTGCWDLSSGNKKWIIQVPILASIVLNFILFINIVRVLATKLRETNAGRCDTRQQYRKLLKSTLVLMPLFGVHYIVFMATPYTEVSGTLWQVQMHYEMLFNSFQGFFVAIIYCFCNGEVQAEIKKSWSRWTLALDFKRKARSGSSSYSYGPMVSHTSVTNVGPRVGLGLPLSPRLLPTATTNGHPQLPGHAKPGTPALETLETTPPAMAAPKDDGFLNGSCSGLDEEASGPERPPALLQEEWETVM
Square brackets hold non-standard residues; d marks the D form. Peptide text beside a SMILES is read from it. * marks the point of attachment. X1 = O=C(c1ccccc1-c1c2ccc(=O)cc-2oc2cc(O)ccc12)*; hArg = N=C(N)NCCCC[C@H](N)C(=O)O; Nle = CCCC[C@H](N)C(=O)O; Aib = CC(C)(N)C(=O)O
readout.kind: IC50 (nM)

{"compound": "CC[C@H](C)[C@H](NC(=O)[C@H](CCC(=O)O)NC(=O)[C@H](C)NC(=O)[C@@H](NC(=O)[C@H](C)N)C(C)C)C(=O)N[C@@H](CCC(N)=O)C(=O)N[C@@H](CC(C)C)C(=O)N[C@@H](CCSC)C(=O)N[C@@H](Cc1cnc[nH]1)C(=O)N[C@@H](CCC(N)=O)C(=O)N[C@@H](CCCCNC(=N)N)C(=O)N[C@@H](C)C(=O)N[C@@H](CCCCN)C(=O)N[C@@H](Cc1c[nH]c2ccccc12)C(=O)N[C@@H](CCCCNC(=O)c1ccccc1-c1c2ccc(=O)cc-2oc2cc(O)ccc12)C(N)=O (H-AVAEIQLMHQ[hArg]AKWK(X1)-NH2)", "subject.of.test": "Parathyroid hormone/parathyroid hormone-related peptide receptor (Homo sapiens)", "experimental.result": 10100}
{"compound": "CCCC[C@H](NC(=O)[C@H](CC(C)C)NC(=O)[C@H](CCC(N)=O)NC(=O)[C@@H](NC(=O)[C@H](CCC(=O)O)NC(=O)C(C)(C)NC(=O)[C@@H](NC(=O)C(C)(C)N)C(C)C)[C@@H](C)CC)C(=O)N[C@@H](Cc1cnc[nH]1)C(=O)N[C@@H](CCC(N)=O)C(=O)N[C@@H](CCCCN=C(N)N)C(=O)N[C@@H](C)C(=O)N[C@@H](CCCCN)C(=O)N[C@@H](Cc1ccc(O)cc1)C(N)=O (H-[Aib]V[Aib]EIQL[Nle]HQ[hArg]AKY-NH2)", "subject.of.test": "Parathyroid hormone/parathyroid hormone-related peptide receptor (Homo sapiens)", "experimental.result": 7.2}
{"compound": "CCCC[C@H](NC(=O)[C@H](CC(C)C)NC(=O)[C@H](CCC(N)=O)NC(=O)[C@@H](NC(=O)[C@H](CCC(=O)O)NC(=O)C(C)(C)NC(=O)[C@@H](NC(=O)C(C)(C)N)C(C)C)[C@@H](C)CC)C(=O)N[C@@H](Cc1cnc[nH]1)C(=O)N[C@@H](CCC(N)=O)C(=O)N[C@@H](CCCNC(=N)N)C(=O)N[C@@H](C)C(=O)N[C@@H](CCCCN)C(=O)N[C@@H](Cc1ccc(O)cc1)C(N)=O (H-[Aib]V[Aib]EIQL[Nle]HQRAKY-NH2)", "subject.of.test": "Parathyroid hormone/parathyroid hormone-related peptide receptor (Homo sapiens)", "experimental.result": 6.87}
{"compound": "CC[C@@H]1O[C@](/C=C/C2CC2)(C(F)(F)F)c2c(ccc(F)c2F)NC1=O", "subject.of.test": "Parathyroid hormone/parathyroid hormone-related peptide receptor (Homo sapiens)", "experimental.result": 990}
{"compound": "CCCC[C@H](NC(=O)[C@H](CC(C)C)NC(=O)[C@H](CCC(N)=O)NC(=O)[C@@H](NC(=O)[C@H](CCC(=O)O)NC(=O)C(C)(C)NC(=O)[C@@H](NC(=O)C(C)(C)N)C(C)C)[C@@H](C)CC)C(=O)N[C@@H](Cc1cnc[nH]1)C(=O)N[C@@H](CCC(N)=O)C(=O)N[C@@H](CCCN=C(N)N)C(=O)N[C@@H](C)C(=O)N[C@@H](CCCCN)C(=O)N[C@@H](Cc1ccc(O)cc1)C(=O)N[C@@H](CCCCNC(=O)c1ccccc1-c1c2ccc(=O)cc-2oc2cc(O)ccc12)C(N)=O (H-[Aib]V[Aib]EIQL[Nle]HQRAKYK(X1)-NH2)", "subject.of.test": "Parathyroid hormone/parathyroid hormone-related peptide receptor (Homo sapiens)", "experimental.result": 98.2}

---

molecular target: Parathyroid hormone/parathyroid hormone-related peptide receptor (Homo sapiens); assay: Activity at human PTH/PTH-related peptide receptor expressed in HEK293 cells assessed as induction of luciferase activity by CRE-luciferase reporter assay; format: functional, cell-based
pEC50: −log10 of the molar value. Square brackets hold non-standard residues; d marks the D form. Peptide text beside a SMILES is read from it. * marks the point of attachment. X1 = O=C(c1ccccc1-c1c2ccc(=O)cc-2oc2cc(O)ccc12)*; hArg = N=C(N)NCCCC[C@H](N)C(=O)O; Nle = CCCC[C@H](N)C(=O)O
readout.kind: pEC50

{"compound": "CC[C@H](C)[C@H](NC(=O)[C@H](CCC(=O)O)NC(=O)[C@H](C)NC(=O)[C@@H](NC(=O)[C@H](C)N)C(C)C)C(=O)N[C@@H](CCC(N)=O)C(=O)N[C@@H](CC(C)C)C(=O)N[C@@H](CCSC)C(=O)N[C@@H](Cc1cnc[nH]1)C(=O)N[C@@H](CCC(N)=O)C(=O)N[C@@H](CCCCNC(=N)N)C(=O)N[C@@H](C)C(=O)N[C@@H](CCCCN)C(=O)N[C@@H](Cc1c[nH]c2ccccc12)C(=O)N[C@@H](CCCCNC(=O)c1ccccc1-c1c2ccc(=O)cc-2oc2cc(O)ccc12)C(N)=O (H-AVAEIQLMHQ[hArg]AKWK(X1)-NH2)", "experimental.result": 7.28}
{"compound": "CCCC[C@H](NC(=O)[C@H](CC(C)C)NC(=O)[C@H](CCC(N)=O)NC(=O)[C@@H](NC(=O)[C@H](CCC(=O)O)NC(=O)[C@H](C)NC(=O)[C@@H](NC(=O)[C@H](C)N)C(C)C)[C@@H](C)CC)C(=O)N[C@@H](Cc1cnc[nH]1)C(=O)N[C@@H](CCC(N)=O)C(=O)N[C@@H](CCCCNC(=N)N)C(=O)N[C@@H](C)C(=O)N[C@@H](CCCCN)C(=O)N[C@@H](Cc1c[nH]c2ccccc12)C(=O)N[C@@H](Cc1ccc(O)cc1)C(N)=O (H-AVAEIQL[Nle]HQ[hArg]AKWY-NH2)", "experimental.result": 7.59}
{"compound": "CCCC[C@H](NC(=O)[C@H](CC(C)C)NC(=O)[C@H](CCC(N)=O)NC(=O)[C@@H](NC(=O)[C@H](CCC(=O)O)NC(=O)[C@H](C)NC(=O)[C@@H](NC(=O)[C@H](C)N)C(C)C)[C@@H](C)CC)C(=O)N[C@@H](Cc1cnc[nH]1)C(=O)N[C@@H](CCC(N)=O)C(=O)N[C@@H](CCCCNC(=N)N)C(=O)N[C@@H](C)C(=O)N[C@@H](CCCCN)C(=O)N[C@@H](Cc1ccc(O)cc1)C(N)=O (H-AVAEIQL[Nle]HQ[hArg]AKY-NH2)", "experimental.result": 7.89}

Data provenance: ChEMBL document CHEMBL1156459
